Assay: chemical genetic growth profiling, strain panel (AID 1159580);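 further: tested at 20 µM; growth read once vehicle control cultures reached saturation at 30 °C; 1 = growth at the plate median or of vehicle wells; lower values mean less growth of the strain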
Settings: S. cerevisiae deletion strains, growth OD, locus YLR357W, strain rsc2, active compounds read low
Hit rate of the full screen: of about 5,500 compounds, about 2,000 (36%) were called active. Roughly 18% stayed inconclusive and do not appear here. Some of the results follow.
Below: a set of entries, each annotated with reported normalized growth.
Respond numerically, and do not add a unit to the figure.

Examples with answers:
O=C1CN(/N=C\c2ccc([N+](=O)[O-])o2)C(=O)N1; 0.954
OC/C=C/c1ccc(O)c(O)c1; 0.988
O=C1OCCN1/N=C\c1ccc([N+](=O)[O-])o1; 1.03
CC[C@]1(O)CC2CN(CCc3c([nH]c4ccccc34)[C@@](C(=O)OC)(c3cc4c(cc3OC)N(C=O)[C@H]3[C@@](O)(C(=O)OC)[C@H](OC(C)=O)[C@]5(CC)C=CCN6CC[C@]43[C@@H]65)C2)C1 (some centres undefined); 0.92
O=C(O)c1cc(O)c(O)c(O)c1; 1.06
O=c1cccc2n1C[C@H]1CNCC2C1; 1.09
NC(=O)c1cc[n+](CC2=C(C(=O)O)N3C(=O)C(NC(=O)C(c4ccccc4)S(=O)(=O)[O-])C3SC2)cc1 (centres undefined); 0.965
Nc1ccc(S(=O)(=O)Nc2nccs2)cc1; 1.02
c1ccc2[nH]c(-c3cscn3)nc2c1; 0.984
CCOP(=S)(OCC)Oc1ccc2c(C)c(Cl)c(=O)oc2c1; 0.972

Query COS(C)(=O)=O yields normalized growth of 0.935

So for CS(=O)(=O)OCCCCOS(C)(=O)=O , the logged normalized growth turned out to be 1.05

The measured normalized growth associated with NC(=O)N/N=C\c1ccc([N+](=O)[O-])o1 reads 0.97

Briefly, normalized growth measured for Oc1ccc(/C=C/c2cc(O)cc(O)c2)cc1 : 0.976

###

Assay: chemical genetic growth profiling, strain panel (AID 1159580);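 further: tested at 20 µM; growth read once vehicle control cultures reached saturation at 30 °C; 1 = growth at the plate median or of vehicle wells; lower values mean less growth of the strain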
Settings: S. cerevisiae deletion strains, growth OD, locus YMR223W, strain ubp8, active compounds read low
The whole screen tested about 5,500 compounds, of which about 2,000 (36%) were called active. Roughly 18% stayed inconclusive and do not appear here. This is one part of the list.
Label criterion met when normalized growth is strictly below 1; at or above that, label criterion not met.

Consider the worked cases shown below.
COc1cc(/C=C/C(=O)O)cc(OC)c1OC; criterion not met
CC12CCC3C(CC=C4CC(O)CCC43C)C1CCC2=O (configuration not stated); criterion met
CN(Cc1cnc2nc(N)nc(N)c2n1)c1ccc(C(=O)NC(CCC(=O)O)C(=O)O)cc1 (configuration not stated); criterion met

Query :: Is 1 strictly greater than the molecule's reported normalized growth? molecule: CCOC(=O)CCCCCCCCCCCCC1C=CCC1 (configuration not stated)
Result :: criterion met

Query :: Report whether reported normalized growth is lower than 1 (strictly) for COc1ccc(/C=C/C(=O)O)cc1OC
Result :: criterion not met

Query :: Quick check: does O=C(O)c1cc(=O)c(O)c2c(O)c(O)ccc2c1 have normalized growth under 1?
Result :: criterion not met

Query :: Could you please tell me whether normalized growth recorded for CC12CCC(CC1)C(C)(C)O2 is less than 1?
Result :: criterion not met

Query :: Please let me know if CCn1cc(C(=O)O)c(=O)c2ccc(C)nc21 shows normalized growth below 1.
Result :: criterion met

Query :: Please check: normalized growth for COc1cc2c3cc1Oc1cc(ccc1O)OC1c4c(cc(OC)c(O)c4Oc4ccc(cc4)CC3N(C)CC2)CCN1C (configuration not stated) , strictly under 1 or not?
Result :: criterion met

Query :: Is normalized growth of COS(C)(=O)=O strictly below 1?
Result :: criterion not met

Query :: Does this molecule meet the criterion normalized growth < 1? CC(=O)O[C@H]1CC[C@@]2(C)C(=CCC3C2CC[C@]2(C)C(=O)CCC32)C1 (some centres not stated)
Result :: criterion met

Query :: Answer whether the molecule c1cc2c(cc1[C@H]1OC[C@H]3[C@@H]1CO[C@H]3c1ccc3c(c1)OCO3)OCO2 has normalized growth strictly less than 1
Result :: criterion met

Query :: Could you please tell me whether normalized growth recorded for O=C(O)CCCCCCCCCCCCC1C=CCC1 (configuration not stated) is less than 1?
Result :: criterion met

Query :: Would you kindly verify if normalized growth of O=C1OCCN1/N=C\c1ccc([N+](=O)[O-])o1 is strictly less than 1?
Result :: criterion met

Query :: Does C[C@@]12C(=O)OC(=O)[C@]1(C)C1CCC2O1 have normalized growth strictly under 1?
Result :: criterion met
